Documented mass density across a set of molecules
- run.parameters: 343 K; 101.33 kPa; Liquid; Pycnometric method
Quick reminder: number only, in kg/m3, skip the unit.

Some entries whose results are on file:
In plain terms, CCCCC[N+](CC)(CC)CC.O=S(=O)([N-]S(=O)(=O)C(F)(F)F)C(F)(F)F [triethylpentylammonium bis(trifluoromethylsulfonyl)imide] has a documented mass density of 1284.7

Noted for CCCCCC[N+](CC)(CC)CC.O=S(=O)([N-]S(=O)(=O)C(F)(F)F)C(F)(F)F [triethylhexylammonium bis((trifluoromethyl)sulfonyl)imide] : its mass density reads 1254.5

Value of measured mass density for the entry `CCCCCCCCCCCC[N+](CC)(CC)CC.O=S(=O)([N-]S(=O)(=O)C(F)(F)F)C(F)(F)F` : 1157.2

Now, please, on to the next molecule.
The recorded mass density for entry CCCCCCCC[N+](CC)(CC)CC.O=S(=O)([N-]S(=O)(=O)C(F)(F)F)C(F)(F)F [triethyloctylammonium bis[(trifluoromethyl)sulfonyl]imide] equals 1216

###

# mass density listing for each entry below
- run.parameters: 363 K; 101.33 kPa; Liquid; Pycnometric method
Number only, in kg/m3; omit the unit.

The recorded mass density for entry CCCCC[N+](CC)(CC)CC.O=S(=O)([N-]S(=O)(=O)C(F)(F)F)C(F)(F)F [triethylpentylammonium bis(trifluoromethylsulfonyl)imide] equals 1268.6

For record `CCCCCCCCCCCC[N+](CC)(CC)CC.O=S(=O)([N-]S(=O)(=O)C(F)(F)F)C(F)(F)F` the listed mass density is 1141.4

Record summary for CCCCCC[N+](CC)(CC)CC.O=S(=O)([N-]S(=O)(=O)C(F)(F)F)C(F)(F)F [triethylhexylammonium bis((trifluoromethyl)sulfonyl)imide] : reported mass density = 1238.4

Here is the next item to consider.
The molecule identified as CCCCCCCC[N+](CC)(CC)CC.O=S(=O)([N-]S(=O)(=O)C(F)(F)F)C(F)(F)F [triethyloctylammonium bis[(trifluoromethyl)sulfonyl]imide] registered its mass density at 1200.2

###

- run.parameters: 323 K, Capillary rise
Numbers after ± are expanded uncertainties.
// values below are reported surface tension liquid-gas
Please make sure the unit comes right after the number.

Given item `CCCCCCCCCCCC[N+](CC)(CC)CC.O=S(=O)([N-]S(=O)(=O)C(F)(F)F)C(F)(F)F` , the value recorded as its surface tension liquid-gas is 29.5 ± 0.5 mN/m

Consider CCCCCCCC[N+](CC)(CC)CC.O=S(=O)([N-]S(=O)(=O)C(F)(F)F)C(F)(F)F [triethyloctylammonium bis[(trifluoromethyl)sulfonyl]imide] . Its measured surface tension liquid-gas is 31 ± 0.5 mN/m

Quick note, surface tension liquid-gas for CCCCC[N+](CC)(CC)CC.O=S(=O)([N-]S(=O)(=O)C(F)(F)F)C(F)(F)F [triethylpentylammonium bis(trifluoromethylsulfonyl)imide] landed at 34 ± 0.5 mN/m

Documented surface tension liquid-gas of CCCCCC[N+](CC)(CC)CC.O=S(=O)([N-]S(=O)(=O)C(F)(F)F)C(F)(F)F [triethylhexylammonium bis((trifluoromethyl)sulfonyl)imide] : 32.1 ± 0.5 mN/m

###

- run.parameters: 313 K; 101.33 kPa; Liquid; Pycnometric method
Below is a list of entries, each paired with its recorded mass density value.
Your answer is read as kg/m3, so omit the unit and give the number.

Sample records with mass density:
The recorded mass density for entry CCCCC[N+](CC)(CC)CC.O=S(=O)([N-]S(=O)(=O)C(F)(F)F)C(F)(F)F [triethylpentylammonium bis(trifluoromethylsulfonyl)imide] equals 1308.9

compound CCCCCCCC[N+](CC)(CC)CC.O=S(=O)([N-]S(=O)(=O)C(F)(F)F)C(F)(F)F [triethyloctylammonium bis[(trifluoromethyl)sulfonyl]imide] , mass density observed: 1239.4

Entry under test: CCCCCC[N+](CC)(CC)CC.O=S(=O)([N-]S(=O)(=O)C(F)(F)F)C(F)(F)F [triethylhexylammonium bis((trifluoromethyl)sulfonyl)imide] . Its mass density was 1279.5

Next compound, please.
According to the records, this compound `CCCCCCCCCCCC[N+](CC)(CC)CC.O=S(=O)([N-]S(=O)(=O)C(F)(F)F)C(F)(F)F` displays mass density of 1179.4

###

- run.parameters: 373 K, Capillary rise
outcome.measure: surface tension liquid-gas (mN/m)
Report the figure in mN/m without appending any unit label.

What the record says about CCCCC[N+](CC)(CC)CC.O=S(=O)([N-]S(=O)(=O)C(F)(F)F)C(F)(F)F [triethylpentylammonium bis(trifluoromethylsulfonyl)imide] : surface tension liquid-gas is 30.4

Recorded surface tension liquid-gas (molecule CCCCCCCC[N+](CC)(CC)CC.O=S(=O)([N-]S(=O)(=O)C(F)(F)F)C(F)(F)F [triethyloctylammonium bis[(trifluoromethyl)sulfonyl]imide] ): 26.9

// recorded surface tension liquid-gas for CCCCCC[N+](CC)(CC)CC.O=S(=O)([N-]S(=O)(=O)C(F)(F)F)C(F)(F)F [triethylhexylammonium bis((trifluoromethyl)sulfonyl)imide] : 28.2

Now take the following molecule into account.
Memo: `CCCCCCCCCCCC[N+](CC)(CC)CC.O=S(=O)([N-]S(=O)(=O)C(F)(F)F)C(F)(F)F` , reported surface tension liquid-gas: 25.2

###

Listed here: items and their measured mass density.
- run.parameters: 348 K; 101.33 kPa; Liquid; Pycnometric method
# number only, unit kg/m3 dropped from output

Form: compound = `CCCCCCCCCCCC[N+](CC)(CC)CC.O=S(=O)([N-]S(=O)(=O)C(F)(F)F)C(F)(F)F` ; mass density = 1153.3

Kindly note the recorded mass density for CCCCCCCC[N+](CC)(CC)CC.O=S(=O)([N-]S(=O)(=O)C(F)(F)F)C(F)(F)F [triethyloctylammonium bis[(trifluoromethyl)sulfonyl]imide] , which is 1212.9

Value of mass density reported for the compound CCCCC[N+](CC)(CC)CC.O=S(=O)([N-]S(=O)(=O)C(F)(F)F)C(F)(F)F [triethylpentylammonium bis(trifluoromethylsulfonyl)imide] is 1280.9

// CCCCCC[N+](CC)(CC)CC.O=S(=O)([N-]S(=O)(=O)C(F)(F)F)C(F)(F)F [triethylhexylammonium bis((trifluoromethyl)sulfonyl)imide] : mass density value = 1251.3

###

# mass density per record follows
- run.parameters: 303 K; 101.33 kPa; Liquid; Pycnometric method
Expressed in kg/m3, but write only the number.

Examples with their reported mass density follow.
mass density recorded for this compound, CCCCCC[N+](CC)(CC)CC.O=S(=O)([N-]S(=O)(=O)C(F)(F)F)C(F)(F)F [triethylhexylammonium bis((trifluoromethyl)sulfonyl)imide] , is 1287.4

# mass density of CCCCC[N+](CC)(CC)CC.O=S(=O)([N-]S(=O)(=O)C(F)(F)F)C(F)(F)F [triethylpentylammonium bis(trifluoromethylsulfonyl)imide] = 1317.4

The measured mass density associated with `CCCCCCCCCCCC[N+](CC)(CC)CC.O=S(=O)([N-]S(=O)(=O)C(F)(F)F)C(F)(F)F` reads 1187.1

Okay, next one:
Record summary for CCCCCCCC[N+](CC)(CC)CC.O=S(=O)([N-]S(=O)(=O)C(F)(F)F)C(F)(F)F [triethyloctylammonium bis[(trifluoromethyl)sulfonyl]imide] : reported mass density = 1247.2

###

- run.parameters: 358 K; 101.33 kPa; Liquid; Pycnometric method
Numbers after ± are expanded uncertainties.
A collection of molecules and their measured mass density
Number first, unit second.

Worked set:
The molecule CCCCCCCC[N+](CC)(CC)CC.O=S(=O)([N-]S(=O)(=O)C(F)(F)F)C(F)(F)F [triethyloctylammonium bis[(trifluoromethyl)sulfonyl]imide] showed mass density equal to 1203.5 ± 2.1 kg/m3

molecule CCCCCC[N+](CC)(CC)CC.O=S(=O)([N-]S(=O)(=O)C(F)(F)F)C(F)(F)F [triethylhexylammonium bis((trifluoromethyl)sulfonyl)imide] , mass density observed: 1243.3 ± 2.2 kg/m3

# molecule `CCCCCCCCCCCC[N+](CC)(CC)CC.O=S(=O)([N-]S(=O)(=O)C(F)(F)F)C(F)(F)F` ; its mass density = 1145.5 ± 2 kg/m3

// moving on: another record for mass density
molecule CCCCC[N+](CC)(CC)CC.O=S(=O)([N-]S(=O)(=O)C(F)(F)F)C(F)(F)F [triethylpentylammonium bis(trifluoromethylsulfonyl)imide] , mass density observed: 1272.9 ± 2.3 kg/m3

###

- run.parameters: 348 K; 101.33 kPa; Liquid; Capillary tube (Ostwald / Ubbelohde) method
This section presents molecules with their documented viscosity values.
State the answer as a number, implicitly in mPa·s.

Sure, the documented viscosity for `CCCCCCCCCCCC[N+](CC)(CC)CC.O=S(=O)([N-]S(=O)(=O)C(F)(F)F)C(F)(F)F` is 29.44

Sample CCCCCC[N+](CC)(CC)CC.O=S(=O)([N-]S(=O)(=O)C(F)(F)F)C(F)(F)F [triethylhexylammonium bis((trifluoromethyl)sulfonyl)imide] ; viscosity observed: 20.96

molecule CCCCC[N+](CC)(CC)CC.O=S(=O)([N-]S(=O)(=O)C(F)(F)F)C(F)(F)F [triethylpentylammonium bis(trifluoromethylsulfonyl)imide] , viscosity observed: 19.27

Record CCCCCCCC[N+](CC)(CC)CC.O=S(=O)([N-]S(=O)(=O)C(F)(F)F)C(F)(F)F [triethyloctylammonium bis[(trifluoromethyl)sulfonyl]imide] , field viscosity: 23.8

These data points were gathered from the NIST ThermoML archive (doi:10.1016/j.jct.2013.05.031).
